- PROTOCOL SUMMARY: qHTS of pediatric cancer cell lines to identify multiple opportunities for drug repurposing: Primary screen for TC32 cells (AID 1347089); also: nearly all actives have a fitted effect of over 60% in size
- CONDITION NOTES: TC32 Ewing sarcoma viability, CellTiter-Glo luminescence, 48 h; series mostly up to 45.8 µM
Records with an inconclusive call do not appear. Activity calls are given as the source filed them. Calls follow the shape of the dose curve; as a rule, active = well fitted cell-killing curve with a large enough effect; inconclusive = small, poorly fitted or top-dose-only effect; inactive = flat fitted curve, though single readings scatter.
Form entry, call: pick from YES (active), NO (inactive)

# example entries with known answers
| MOLECULE | ANSWER LABEL |
| --- | --- |
| CC(=O)N[C@H]1[C@@H]([C@H](O)[C@H](O)CO)OC(C(=O)O)=C[C@@H]1N=C(N)N | NO |
| NC1=N[C@H]2[C@H](CS[C@H]2CCCCC(=O)O)N1 | NO |
| O=C(NC1CC1)c1cccc(-c2ccc3c(NC(=O)C4CC4)n[nH]c3c2)c1 | YES |
| Nc1ccn(C2CO[C@H](CO)O2)c(=O)n1 (some centres not stated) | NO |
| CCCc1nc(C(C)(C)O)c(C(=O)O)n1Cc1ccc(-c2ccccc2-c2nn[nH]n2)cc1 | NO |
| Cc1[nH]c(C=C2C(=O)Nc3ccccc32)c(C)c1CCC(=O)O | YES |

Recorded test call requested for "CO[C@@H]1[C@@H](O)[C@H](O)[C@@H](n2c3c(Cl)cccc3c3c4c(c5c6cccc(Cl)c6[nH]c5c32)C(=O)NC4=O)O[C@@H]1CO" YES

====

- PROTOCOL SUMMARY: qHTS Assay for Lipid Storage Modulators (AID 1519)
- CONDITION NOTES: Drosophila S3 cells, BODIPY lipid droplet/cell ratio, laser cytometry; measured here: cell count channel max response; cells loaded with oleic acid
Inconclusive results are not listed.
QUANTITY KIND: max response (%)
Write the number in % without appending the unit.

Form: molecule = "O=c1c(O)c(-c2ccc(O)c(O)c2)oc2cc(O)ccc12" ; max response = -27.3

// field: max response; key: CC(Cc1ccc(O)c(O)c1)(NN)C(=O)O (centres undefined) ; value = 0.886

Just so you know, measured max response for "Nc1nc2c(c(=O)[nH]1)N(C=O)[C@H](CNc1ccc(C(=O)N[C@@H](CCC(=O)O)C(=O)O)cc1)CN2" came out at -9.43

Reported max response for COc1cc2c(cc1O)CCC1C2CC[C@@]2(C)C1CC[C@@H]2O (some centres undefined) was 18.4

====

- PROTOCOL SUMMARY: Quantitative High-Throughput drug screen in 47 multiple myeloma cell lines against the NCATS MIPE library collection: L363_DSMZ cell viability assay (AID 1918984); also: nearly all actives have a fitted effect of over 40% in size
- CONDITION NOTES: L363 myeloma viability, CellTiter-Glo ATP luminescence, 48 h; series mostly up to 45.8 µM
Results filed as inconclusive are left out. Calls of active or inactive are those of the source. The call rests on the fitted dose curve; in most records, active means well fitted cell-killing curve with a large enough effect; inconclusive means small, poorly fitted or top-dose-only effect, or effect the other way; inactive means no such curve, though single readings can be large or run the other way.
Returns: one label drawn from active, inactive

| COMPOUND | ANSWER LABEL |
| --- | --- |
| COc1ccc(C[C@@H](C)[C@@H](C)Cc2ccc(OC)c(OC)c2)cc1OC | active |
| Cn1cnc(=N)c2[nH]cnc21 | active |
| C[C@H](NC(=O)C(C#N)=Cc1cccc(Br)n1)c1ccccc1 | active |
| CON=C(C(=O)N[C@@H]1C(=O)N2C(C(=O)O)=C(Cn3ccc(=N)n3CCO)CS[C@H]12)c1csc(N)n1 | inactive |

Hey, what did the test say about "CC(C)C[C@H](NC(=O)[C@@H](NC(=O)c1cccc(-c2ccccc2)n1)[C@@H](C)O)B(O)O" ? active

Could you please tell me the result logged for OC[C@H]1OC(O)C[C@@H](O)[C@H]1O (stereo partly specified) in this assay? inactive

Test call, this compound: "COc1cc(C)c(C=CC(C)=CC=CC(C)=CC(=O)O)c(C)c1C" inactive

Would you mind telling me which call this test gave Nc1nc(=O)n([C@H]2CSC(CO)O2)cc1F (stereo partly specified) ? inactive

Outcome logged for "COc1cc(C[C@@H](CO)[C@H](CO)Cc2ccc(O)c(OC)c2)ccc1O" in this assay: active

====

- PROTOCOL SUMMARY: Quantitative High-Throughput drug screen in 47 multiple myeloma cell lines against the NCATS MIPE library collection: PCM6_Riken cell viability assay (AID 1919870); also: nearly all actives have a fitted effect of over 30% in size
- CONDITION NOTES: CellTiter-Glo ATP, 48 h; series mostly up to 45.8 µM
Inconclusive results are not listed. The source made the active and inactive calls. The call rests on the fitted dose curve; in most records, active means well fitted cell-killing curve with a large enough effect; inconclusive means small, poorly fitted or top-dose-only effect, or effect the other way; inactive means no such curve, though single readings can be large or run the other way.
The reply should be one of these categories: label 1 for active, label 0 for inactive

Example entries and their recorded answers appear below.
| COMPOUND | ANSWER LABEL |
| --- | --- |
| N#CC(=Cc1ccc(O)c(O)c1)C(=O)NCc1ccccc1 | label 1 |
| O=c1[nH]c(=O)n([C@H]2C[C@@H](O)[C@@H](CO)O2)cc1C=CBr | label 0 |
| Cc1cnc(Nc2ccc(N3CCN(C)CC3)cc2)nc1Nc1cccc(S(=O)(=O)NC(C)(C)C)c1 | label 1 |
| Nc1nc(=O)n([C@H]2C[C@H](O)[C@@H](CO)O2)cc1F | label 1 |
| CC(=O)NCC(=O)N1[C@H]2CC[C@H]1c1cc(Nc3ncc(C(F)(F)F)c(NC4CCC4)n3)ccc12 | label 1 |

Per the assay record, what outcome was assigned to "CN1C(C(=O)Nc2ccccn2)=C(O)c2sc(Cl)cc2S1(=O)=O" ? label 1

====

- PROTOCOL SUMMARY: Quantitative High-Throughput drug screen in 47 multiple myeloma cell lines against the NCATS MIPE library collection: ARP1_JJKsccF8 cell viability assay (AID 1918928; also: nearly all actives have a fitted effect of over 40% in size)
- CONDITION NOTES: ARP1 myeloma cells viability, CellTiter-Glo ATP, 48 h; series mostly up to 45.8 µM
Inconclusive results are not listed. Calls of active or inactive are those of the source. The call rests on the fitted dose curve; in most records, active means well fitted cell-killing curve with a large enough effect; inconclusive means small, poorly fitted or top-dose-only effect, or effect the other way; inactive means no such curve, though single readings can be large or run the other way.
Return exactly one item of True (active), False (inactive)

| COMPOUND | ANSWER LABEL |
| --- | --- |
| CC(C)n1cnc2c(NCCc3ccc(O)cc3)nc(-c3csc4ccccc34)nc21 | True |

Returns: the outcome recorded for "N#CC(=C(N)Sc1ccc(N)cc1)c1ccccc1C(F)(F)F" in this assay. True

Call for entry "N#Cc1c(NC(=O)c2cccc3ccccc23)sc2c1CCCC2" : True

Which outcome was entered for the compound "CCNC(=O)Nc1ccc(-c2nc3c(c(N4CCOC[C@H]4C)n2)CCN(C2COC2)C3)cc1" in this test? True

I would be grateful if you could indicate the recorded call for "CCc1ccc(C(=O)Nc2cc(CN3CCN(C)CC3)cc(C(F)(F)F)c2)cc1C#Cc1cnc2ccnn2c1" . True

====

- PROTOCOL SUMMARY: qHTS Screen of the MIPE 4.0 Collection Against Ewings Sarcoma (EW8) (AID 1259255); also: nearly all actives have a fitted effect of over 35% in size;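 as to viability: 100% = DMSO-treated cells and 0% = medium-only wells without cells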
- CONDITION NOTES: EW8 Ewing sarcoma viability, CellTiter-Glo, 48 h; series mostly up to 45.8 µM
Inconclusive results are not listed. Calls of active or inactive are those of the source. Calls come from the whole dose curve; as a rule, active = well fitted inhibition curve with a large enough effect; inconclusive = small, poorly fitted or top-dose-only effect; inactive = no such curve, though single readings can be large or run the other way.
Select the matching outcome among active, inactive

| SMILES RECORD | ANSWER LABEL |
| --- | --- |
| CCc1cnn2c(NCc3ccc[n+]([O-])c3)cc(N3CCCC[C@@H]3CCO)nc12 | active |
| CC(=O)OCC(=O)[C@@]12N=C(C)O[C@H]1C[C@H]1[C@@H]3CCC4=CC(=O)C=C[C@]4(C)[C@@H]3[C@@H](O)C[C@@]12C | inactive |
| C[C@]12CC[C@@H]3c4ccc(O)cc4CC[C@H]3[C@H]1CC[C@H]2O | active |

Now consider the entry below.
Please let me know the test result on file for "COc1cccc2c1C(=O)c1c(O)c3c(c(O)c1C2=O)C[C@@](O)(C(=O)CO)C[C@H]3O[C@H]1C[C@H](N)[C@H](O)[C@H](C)O1" . active

====

- PROTOCOL SUMMARY: qHTS of pediatric cancer cell lines to identify multiple opportunities for drug repurposing: Primary screen for BT-37 cells (AID 1347094)
- CONDITION NOTES: BT-37 viability, CellTiter-Glo luminescence, 48 h; series mostly up to 57.3 µM
Results filed as inconclusive are left out. The source made the active and inactive calls. The call rests on the fitted dose curve; in most records, active means well fitted cell-killing curve with a large enough effect; inconclusive means small, poorly fitted or top-dose-only effect; inactive means flat fitted curve, though single readings scatter. Residues, ends and D or L forms follow the SMILES beside them. *: point of attachment. Cbz = O=C(OCc1ccccc1)*
Respond only with the outcome that fits, drawn from 1 (yes) (active), 0 (no) (inactive)

Example entries and their recorded answers appear below.
| MOLECULE | ANSWER LABEL |
| --- | --- |
| Cn1cc(CNCC2CCN(c3ncc(C(=O)NO)cn3)CC2)c2ccccc21 | 1 (yes) |
| CC(C)C[C@@H](C=O)NC(=O)[C@H](CC(C)C)NC(=O)[C@H](CC(C)C)NC(=O)OCc1ccccc1 (Cbz-Leu-Leu-Leu-aldehyde) | 1 (yes) |
| Nc1cccc2c1C(=O)N(C1CCC(=O)NC1=O)C2=O (stereo not drawn) | 0 (no) |
| O=C1NC(O)CCN1[C@@H]1O[C@H](CO)[C@H](O)[C@H]1O (stereo partly drawn) | 0 (no) |
| O=C(NNC(=O)c1ccc(CNS(=O)(=O)c2ccc(F)c(Cl)c2)cc1)c1ccccc1 | 0 (no) |
| N=c1ccn2c(n1)O[C@H]1[C@@H](O)[C@@H](CO)O[C@H]12 | 1 (yes) |
| CC(C)(O)CC[C@@H](O)[C@](C)(O)[C@H]1CC[C@@]2(O)C3=CC(=O)[C@@H]4C[C@@H](O)[C@@H](O)C[C@]4(C)[C@@H]3CC[C@]12C | 0 (no) |

We next turn to a different molecule, shown below.
Check the results log: what was the call for "FC(F)(F)c1ccc(Nc2nc3ccc(Oc4ccnc(-c5ncc(C(F)(F)F)[nH]5)c4)cc3[nH]2)cc1" ? 1 (yes)

This collection of values is drawn from PubChem BioAssay (NCATS).
